Molecular target: human HYPDH (Homo sapiens, UniProt Q9UF12)
Sequence (Q9UF12 71-439 limits assumed): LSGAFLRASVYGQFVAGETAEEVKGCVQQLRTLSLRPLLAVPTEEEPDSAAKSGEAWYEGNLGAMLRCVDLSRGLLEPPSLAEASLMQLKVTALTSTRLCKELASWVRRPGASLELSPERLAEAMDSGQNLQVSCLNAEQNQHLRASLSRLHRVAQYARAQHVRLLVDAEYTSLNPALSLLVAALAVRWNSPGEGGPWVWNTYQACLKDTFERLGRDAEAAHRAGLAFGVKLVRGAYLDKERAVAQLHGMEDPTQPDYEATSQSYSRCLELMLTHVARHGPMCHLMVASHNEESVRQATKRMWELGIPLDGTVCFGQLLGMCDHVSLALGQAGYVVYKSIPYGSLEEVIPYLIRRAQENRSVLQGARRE
READOUT: Kd (µM)
Express the result in µM but write the number alone.

Look at this molecule and give its reported Kd. O=C(O)[C@@H]1C[C@@H](O)CN1 [Hyp, Hydroxyproline]
125
